# PROCEDURE_DETAILS: Intrinsic clearance in human liver microsomes at 1 uM after 30 mins
# Assay type: ADME, Microsome
# CONDITION_SET: read-out: CLH
# note: exactly 200 µL/min/mg is not below, so it is label 0; use label 1 for microsomal CLint at 1 µM strictly under it

Some entries whose results are on file:
>  <INPUT_SMILES>
COc1ccc(C[C@H](NC(C)=O)[C@H](O)CN[C@H]2CC3(CCC3)Oc3ncc(CC(C)(C)C)cc32)cc1F

>  <CLASS>
label 1

$$$$
>  <INPUT_SMILES>
CC(=O)N[C@@H](Cc1ccccc1)[C@H](O)CN[C@H]1CC2(CCC2)Oc2ncc(CC(C)(C)C)cc21

>  <CLASS>
label 0

$$$$
>  <INPUT_SMILES>
CC(=O)N[C@@H](Cc1ccc(F)c(C(F)(F)F)c1)[C@H](O)CN[C@H]1CC2(CCC2)Oc2ncc(CC(C)(C)C)cc21

>  <CLASS>
label 1

$$$$

Query: Confirm or reject: microsomal CLint at 1 µM of CC(=O)N[C@@H](Cc1ccc(C)c(F)c1)[C@H](O)CN[C@H]1CC2(CCC2)Oc2ncc(CC(C)(C)C)cc21 lies strictly below 200 µL/min/mg
Reply: label 0

Query: Confirm or reject: microsomal CLint at 1 µM of CC(=O)N[C@@H](Cc1ccc(F)cc1F)[C@H](O)CN[C@H]1CC2(CCC2)Oc2ncc(CC(C)(C)C)cc21 lies strictly below 200 µL/min/mg
Reply: label 1

Query: Confirm or reject: microsomal CLint at 1 µM of CC(=O)N[C@@H](Cc1ccccc1F)[C@H](O)CN[C@H]1CC2(CCC2)Oc2ncc(CC(C)(C)C)cc21 lies strictly below 200 µL/min/mg
Reply: label 0

Query: Confirm or reject: microsomal CLint at 1 µM of CC(=O)N[C@@H](Cc1cccc(C(F)(F)F)c1)[C@H](O)CN[C@H]1CC2(CCC2)Oc2ncc(CC(C)(C)C)cc21 lies strictly below 200 µL/min/mg
Reply: label 0
